System: RGS2-FBXO44 interaction (Homo sapiens)
Construct: expressed in transfected cells
Sequence (P41220 whole entry): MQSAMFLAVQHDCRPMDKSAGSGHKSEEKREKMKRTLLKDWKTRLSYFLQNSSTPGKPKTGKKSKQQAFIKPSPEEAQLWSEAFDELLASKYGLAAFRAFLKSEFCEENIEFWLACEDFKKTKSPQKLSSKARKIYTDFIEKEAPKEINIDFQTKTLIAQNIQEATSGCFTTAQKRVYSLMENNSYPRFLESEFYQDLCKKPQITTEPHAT
Assay overview: RGS2-FBXO44 NanoBit assay (HEK-293T RGS2-SmBiT/LgBiT-FBXO44 stable clone #6)
Format: cell-based
Reported conditions: concentrations 500 to 0.01 μM; RLU normalized to viability (RFU); read-out: IC50 (μM), inhibition of RGS2-FBXO44 NanoBit signal
Measurement label: IC50

1) CCOc1cc(C)c(C)cc1S(=O)(=O)N1CCN(c2ccccc2)CC1	29 µM
2) CCc1nc(C)cn1S(=O)(=O)c1cc(OC)c(C)cc1C	4.4 µM
3) CCOc1ccc(C(=O)NCc2ccnc(N3CCCCC3)n2)cc1	38.2 µM
